In this section we review reported pIC50 values for a set of compounds.
target-or-test-system: Human recombinant liver glycogen phosphorylase a (hrl GPa) (Homo sapiens)
Sequence (P06737 whole entry): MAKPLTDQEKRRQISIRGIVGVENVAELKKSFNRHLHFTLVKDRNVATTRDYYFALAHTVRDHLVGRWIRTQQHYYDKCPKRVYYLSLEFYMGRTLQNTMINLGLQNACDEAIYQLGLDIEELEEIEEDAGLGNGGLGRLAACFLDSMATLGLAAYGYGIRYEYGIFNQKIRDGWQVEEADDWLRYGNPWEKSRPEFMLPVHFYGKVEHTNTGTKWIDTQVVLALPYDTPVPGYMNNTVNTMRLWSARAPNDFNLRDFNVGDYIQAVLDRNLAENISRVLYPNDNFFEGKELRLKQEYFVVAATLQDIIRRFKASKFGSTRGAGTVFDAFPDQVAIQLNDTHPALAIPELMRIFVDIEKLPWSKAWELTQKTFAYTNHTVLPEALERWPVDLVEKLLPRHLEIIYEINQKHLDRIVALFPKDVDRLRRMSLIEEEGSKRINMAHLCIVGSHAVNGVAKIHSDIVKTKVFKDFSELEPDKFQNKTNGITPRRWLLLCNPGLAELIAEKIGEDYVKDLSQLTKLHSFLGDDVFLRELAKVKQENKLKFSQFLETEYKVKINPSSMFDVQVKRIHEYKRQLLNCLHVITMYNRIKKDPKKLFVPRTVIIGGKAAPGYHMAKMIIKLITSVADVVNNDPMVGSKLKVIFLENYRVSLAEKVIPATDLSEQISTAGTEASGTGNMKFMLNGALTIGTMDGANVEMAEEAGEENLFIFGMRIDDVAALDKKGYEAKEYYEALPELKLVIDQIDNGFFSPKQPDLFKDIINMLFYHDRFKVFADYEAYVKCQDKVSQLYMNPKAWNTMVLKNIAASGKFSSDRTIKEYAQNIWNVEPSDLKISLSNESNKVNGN
experiment-description: Glycogen phosphorylase inhibition, multienzyme coupled assay
condition-parameters: hrl GPa 20 nM, 6 hours at 30° C.
Give only the number. pIC50 is defined as minus log10 of concentration in molar units.

CN(C(=O)[C@@H](N)CO)[C@@H]1c2ccccc2C[C@H]1NC(=O)c1cc2cc(Cl)ccc2[nH]1.Cl [Example 2, hydrochloride]
6.30

Let us examine a further case.
Could you tell me which pIC50 is on file for CN(C(=O)[C@H](O)CO)[C@@H]1c2ccccc2C[C@H]1NC(=O)c1cc2cc(Cl)ccc2[nH]1 ? 6.96

###

experiment-description: Thermodynamic solubility
Format: physicochemical
condition-parameters: phosphate buffer, pH 7.4, aqueous buffer, thermodynamic from solid, 0.1 M phosphate at pH7.4 for 24 hours
Quick list: solubility at 24 h per entry.
Report as a plain number; the unit µM is understood.

CN(C(=O)[C@H](O)CO)[C@@H]1c2ccccc2C[C@H]1NC(=O)c1cc2cc(Cl)ccc2[nH]1
119

Query molecule follows.
Could you share which solubility at 24 h value was measured for CN(C(=O)[C@@H](N)CO)[C@@H]1c2ccccc2C[C@H]1NC(=O)c1cc2cc(Cl)ccc2[nH]1.Cl ? 173

Measured values drawn from patent US20060199966A1 for this set.
